target-of-assay: human bradykinin receptor 1 (B1R) (Homo sapiens, UniProt P46663)
Construct: expressed in transfected cells; host or cells: CHO K1 cells
Sequence (P46663 1-353): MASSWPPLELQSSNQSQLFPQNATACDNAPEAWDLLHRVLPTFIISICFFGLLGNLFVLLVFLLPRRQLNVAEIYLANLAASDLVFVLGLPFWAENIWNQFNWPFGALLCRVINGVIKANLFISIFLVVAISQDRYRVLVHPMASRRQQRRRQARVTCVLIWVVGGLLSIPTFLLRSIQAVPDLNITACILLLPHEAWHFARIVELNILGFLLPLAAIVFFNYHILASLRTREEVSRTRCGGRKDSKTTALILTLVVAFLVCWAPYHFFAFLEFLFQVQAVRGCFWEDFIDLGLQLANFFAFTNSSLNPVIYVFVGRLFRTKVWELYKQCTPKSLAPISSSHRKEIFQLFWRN
assay-info: Functional study on the bradykinin receptor 1 (B1R), human: FLIPR Ca2+ influx assay
Assay type: cell-based
test-context: test substance 10 μM; CHO K1 cells transfected with human B1R; Lys-Des-Arg9-bradykinin at EC80; Ca2+ influx (Fluo-4, FLIPR); read-out: B1R antagonism, human [10 μM] % inhibition
inhibition at 10 µM for assorted compounds
Enter your answer as a number in %; do not include the unit.

- compound: "O=C(CC1CCCN1S(=O)(=O)c1ccc(Cl)c(Cl)c1)NCC1CCC(C(CCc2ccccc2)N2CCCC2)CC1 (stereo not shown)"
  value-type: "inhibition at 10 µM"
  assay-value: 91.7
- compound: "COc1ccc(S(=O)(=O)N2CCc3ccccc3C2CC(=O)NCCC2CCC(C(c3cccc(F)c3)N(C)C)CC2)cc1 (stereo not shown)"
  value-type: "inhibition at 10 µM"
  assay-value: 64
- compound: "COc1ccc(S(=O)(=O)N2CCc3ccccc3C2CC(=O)NCC2CCC(C(c3cccc(F)c3)N(C)C)CC2)cc1 (stereo not shown)"
  value-type: "inhibition at 10 µM"
  assay-value: 35.5

Incoming: Reported inhibition at 10 µM, compound CN(C)C(c1ccc(F)cc1)C1CCC(CNC(=O)c2ccccc2N(C)S(=O)(=O)c2ccc(Cl)c(Cl)c2)CC1 (stereo not shown) : ____
Outgoing: 17.1

---

target-of-assay: human bradykinin receptor 1 (B1R) (Homo sapiens)
Construct: expressed in transfected cells; host or cells: CHO K1 cells
assay-info: Functional study on the bradykinin receptor 1 (B1R), human: FLIPR Ca2+ influx assay
Assay type: cell-based
test-context: test substance 10 μM; CHO K1 cells transfected with human B1R; Lys-Des-Arg9-bradykinin at EC80; Ca2+ influx (Fluo-4, FLIPR); read-out: B1R antagonism, human [10 μM] % inhibition
Source text: Functional Study on the Human Bradykinin Receptor 1 (B1R) The agonistic or antagonistic action of substances can be determined on the bradykinin receptor 1 (B1R) of the species human and rat using the following assay. According to this assay, the Ca^2+ influx through the channel is quantified with the aid of a Ca^2+-sensitive dye (Fluo-4 type, Molecular Probes Europe BV, Leiden, Netherlands) using a Fluorescent Imaging Plate Reader (FLIPR, Molecular Devices, Sunnyvale, USA). […]
value-type: inhibition at 10 µM (%)
Enter your answer as a number in %; do not include the unit.

Example entries and their recorded answers appear below.
- compound: "CN(C)C(c1cccc(F)c1)C1CCC(CNC(=O)CC2c3ccccc3CCN2S(=O)(=O)c2ccc(Cl)c(Cl)c2)CC1 (stereo not drawn)"
  target-of-assay: "human bradykinin receptor 1 (B1R) (Homo sapiens)"
  unit-annotation: "%"
  inhibition at 10 µM: 26.3
- compound: "CN1CCN(C(c2ccc(F)cc2)C2CCN(C(=O)CC3CCCCN3S(=O)(=O)c3cccc(C(F)(F)F)c3)CC2)CC1 (stereo not drawn)"
  target-of-assay: "human bradykinin receptor 1 (B1R) (Homo sapiens)"
  unit-annotation: "%"
  inhibition at 10 µM: 102
- compound: "O=C(CC1CCCN1S(=O)(=O)c1ccc(Cl)c(Cl)c1)NC1CCC(C(CCc2ccccc2)N2CCCCC2)CC1 (stereo not drawn)"
  target-of-assay: "human bradykinin receptor 1 (B1R) (Homo sapiens)"
  unit-annotation: "%"
  inhibition at 10 µM: 102

Incoming: Reported inhibition at 10 µM, compound O=C(CC1CCCN1S(=O)(=O)c1ccc(Cl)c(Cl)c1)NCC1CCC(C(CCc2ccccc2)N2CCOCC2)CC1 (stereo not drawn) : ____
Outgoing: 54.7

Incoming: Reported inhibition at 10 µM, compound CN(C)C(c1ccc(Cl)cc1)C1CCC(CNC(=O)c2ccccc2N(C)S(=O)(=O)c2ccc(Cl)c(Cl)c2)CC1 (stereo not drawn) : ____
Outgoing: 22

Incoming: Reported inhibition at 10 µM, compound CN(C)C(c1ccccc1)C1CCC(CNC(=O)CCCCN(C)S(=O)(=O)c2c(Cl)cc(Cl)cc2Cl)CC1 (stereo not drawn) : ____
Outgoing: 102

Incoming: Reported inhibition at 10 µM, compound CN(C)C(c1ccc(F)cc1)C1CCC(CNC(=O)CC2c3ccccc3CCN2S(=O)(=O)c2ccc(Cl)c(Cl)c2)CC1 (stereo not drawn) : ____
Outgoing: 54

Incoming: Reported inhibition at 10 µM, compound CN1CCN(C(Cc2ccccc2)C2CCN(C(=O)CC3CCCCN3S(=O)(=O)c3cccc(C(F)(F)F)c3)CC2)CC1 (stereo not drawn) : ____
Outgoing: 94

Incoming: Reported inhibition at 10 µM, compound COc1ccc(S(=O)(=O)N2CCc3ccccc3C2CC(=O)NCC2CCC(C(c3ccccc3)N(C)C)CC2)cc1 (stereo not drawn) : ____
Outgoing: 36.6

---

target-of-assay: human μ-opiate receptor (Homo sapiens, UniProt P35372)
Construct: purchased PerkinElmer Life Sciences, Zaventem, Belgium RB-HOM; host or cells: CHO-K1 cells (membrane preparation)
Sequence (P35372 whole entry): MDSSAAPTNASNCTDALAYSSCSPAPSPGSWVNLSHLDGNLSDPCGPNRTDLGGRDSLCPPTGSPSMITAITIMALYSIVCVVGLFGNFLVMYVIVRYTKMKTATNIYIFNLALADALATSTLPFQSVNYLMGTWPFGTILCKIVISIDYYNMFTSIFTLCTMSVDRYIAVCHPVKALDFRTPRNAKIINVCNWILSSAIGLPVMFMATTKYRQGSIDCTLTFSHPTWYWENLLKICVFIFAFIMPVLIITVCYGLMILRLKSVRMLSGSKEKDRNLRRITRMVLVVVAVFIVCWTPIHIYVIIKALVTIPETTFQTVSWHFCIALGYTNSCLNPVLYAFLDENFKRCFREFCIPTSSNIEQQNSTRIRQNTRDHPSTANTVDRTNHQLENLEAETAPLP
assay-info: Affinity for the human μ-opiate receptor ([3H]-naloxone displacement, SPA)
test-context: test substance 1 μmol/l; inhibition of specific [3H]-naloxone binding; CHO-K1 receptor membrane preparation; read-out: μ-Opioid receptor [1 μM] % inhibition
value-type: inhibition at 1 µM (%)
Enter your answer as a number in %; do not include the unit.

- molecule: "CN(CCCCC(=O)NC1CCC(C(c2ccccc2)N2CCCCC2)CC1)S(=O)(=O)c1c(Cl)cc(Cl)cc1Cl (stereo not drawn)"
  unit-annotation: "%"
  inhibition at 1 µM: 29
- molecule: "COc1cc(C)c(S(=O)(=O)N(C)CCCNC(=O)NC2CCC(C(c3ccccc3)N(C)C)CC2)c(C)c1C (stereo not drawn)"
  unit-annotation: "%"
  inhibition at 1 µM: 94
- molecule: "CN1CCN(C(c2ccccc2)C2CCC(NC(=O)CC3C(=O)NCCN3S(=O)(=O)c3ccc(Cl)cc3Cl)CC2)CC1 (stereo not drawn)"
  unit-annotation: "%"
  inhibition at 1 µM: 34

Incoming: Reported inhibition at 1 µM, molecule O=C(CC1CCCCN1S(=O)(=O)c1ccc(Cl)c(Cl)c1)NC1CCC(C(c2ccccc2)N2CCCC2)CC1 (stereo not drawn) : ____
Outgoing: 78

Incoming: Reported inhibition at 1 µM, molecule O=C(CC1C(=O)NCCN1S(=O)(=O)c1ccc(Cl)cc1Cl)NC1CCC(C(c2ccccc2)N2CCOCC2)CC1 (stereo not drawn) : ____
Outgoing: 4

Incoming: Reported inhibition at 1 µM, molecule O=C(CC1CCCCN1S(=O)(=O)c1ccc(Cl)c(Cl)c1)NC1CCC(C(CCc2ccccc2)N2CCOCC2)CC1 (stereo not drawn) : ____
Outgoing: 38

---

target-of-assay: bradykinin receptor 1 (B1R) of the rat (Rattus norvegicus, UniProt P97583)
Construct: expressed in transfected cells; host or cells: CHO K1 cells
Sequence (P97583 whole entry): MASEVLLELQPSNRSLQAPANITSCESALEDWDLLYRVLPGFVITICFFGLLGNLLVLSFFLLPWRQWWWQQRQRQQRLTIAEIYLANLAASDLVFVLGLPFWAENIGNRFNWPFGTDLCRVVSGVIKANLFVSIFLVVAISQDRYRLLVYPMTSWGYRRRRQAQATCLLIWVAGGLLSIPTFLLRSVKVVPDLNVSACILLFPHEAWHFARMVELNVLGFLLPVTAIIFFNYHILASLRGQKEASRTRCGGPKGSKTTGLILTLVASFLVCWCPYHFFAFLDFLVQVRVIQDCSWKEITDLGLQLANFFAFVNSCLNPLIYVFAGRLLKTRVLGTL
assay-info: Functional study on the bradykinin receptor 1 (B1R), rat: FLIPR Ca2+ influx assay
Type: cell-based
test-context: test substance 10 μM; CHO K1 cells transfected with rat B1R; Des-Arg9-bradykinin at EC80; Ca2+ influx (Fluo-4, FLIPR); read-out: B1R antagonism, rat [10 μM] % inhibition
value-type: inhibition at 10 µM (%)
Enter your answer as a number in %; do not include the unit.

- compound: "CN(C)C(c1cccs1)C1CCC(CCNC(=O)c2c(N(C)S(=O)(=O)c3ccc(Cl)c(Cl)c3)sc3c2CCCC3)CC1 (stereo not shown) [Example 53]"
  inhibition at 10 µM (%): 12

Incoming: Reported inhibition at 10 µM, compound COc1ccc(S(=O)(=O)N2CCc3ccccc3C2CC(=O)NCC2CCC(C(c3ccccc3)N(C)C)CC2)cc1 (stereo not shown) [Example 17] : ____
Outgoing: 41

Incoming: Reported inhibition at 10 µM, compound O=C1Nc2ccccc2N(S(=O)(=O)c2ccc(Cl)c(Cl)c2)C1CC(=O)N1CCC(C(c2ccccc2)N2CCOCC2)CC1 (stereo not shown) [Example 71] : ____
Outgoing: 32

Incoming: Reported inhibition at 10 µM, compound CN(C)C(CCc1ccccc1)C1CCC(NC(=O)C2Cc3ccccc3N2S(=O)(=O)c2ccc(Cl)c(Cl)c2)CC1 (stereo not shown) [Example 93] : ____
Outgoing: -24
